Origin of the recorded values: patent US20250140406A1

- System: cancer cell lines classified IM, MSL, M
- test.description: PRISM screen compound sensitivity correlated with IM, MSL and M subtype of cell lines (101 gene signature)
- Assay type: cell-based
- measurement.parameters: correlation of PRISM compound sensitivity with M subtype correlation; test cell set (188 cell lines)
Classification field: enter rule met for M Corr test values not below 0.003, rule not met for values below it.

molecular.string	label.value
OCCn1cc(-c2cnc3nnn(Cc4ccc5ncccc5c4)c3n2)cn1	rule met
CC[C@H](C)[C@@H]([C@@H](CC(=O)N1CCC[C@H]1[C@H](OC)[C@@H](C)C(=O)N[C@@H](Cc1ccccc1)c1nccs1)OC)N(C)C(=O)[C@@H](NC(=O)[C@H](C(C)C)N(C)C)C(C)C	rule met
CC(=O)NCC(=O)N1[C@@H]2CC[C@H]1c1ccc(Nc3ncc(C(F)(F)F)c(NC4CCC4)n3)cc12	rule not met

Threshold query (M Corr test >= 0.003) on O=C1NC(=O)C(c2cnc3ccccn23)=C1c1cn2c3c(cc(F)cc13)CN(C(=O)N1CCCCC1)CC2
rule met

Thanks! And OCCN1CCN(CC/C=C2/c3ccccc3Sc3ccc(C(F)(F)F)cc32)CC1 ?
rule met

Thanks! And CNC(=O)CN1CCC(Oc2cc3c(Nc4cccc(Cl)c4F)ncnc3cc2OC)CC1 ?
rule met

Thanks! And O=C(NCc1ccccc1)c1csc(Nc2ccncn2)n1 ?
rule not met
